- ASSAY_SYSTEM: FAM19A5 protein (Homo sapiens, UniProt Q7Z5A7)
- ASSAY_NOTES: competitive inhibition ELISA; competitor: coated LRRC4B(36-576)-hFc
MEASURE_NAME: Inhibition rate (%)
API: value field is a number in %; no unit string.

Sample answers from the record:
BINDER	Inhibition rate (%)
GYTYFTTATVETLETQPGEE [FB-20[A7]]	26.8
GYTYFTTVAVETLETQPGEE [FB-20[A8]]	3.9
GYTAFTTVTVETLETQPGEE [FB-20[A3]]	5.9

Recall and state the measured Inhibition rate (%) for GYAYFTTVTVETLETQPGEE [FB-20[A2]] .
1

Recall and state the measured Inhibition rate (%) for GYTYFTNVTVETLETQPGEE [FB-20[N6]] .
-11.4

Recall and state the measured Inhibition rate (%) for GYTYFTTNTVETLETQPGEE [FB-20[N7]] .
24.5

Recall and state the measured Inhibition rate (%) for GYTYFATVTVETLETQPGEE [FB-20[A5]] .
53.4
